The reported numbers originate from patent US20240398784A1.

Biological target: LRRK2 G2019S (Homo sapiens, UniProt Q5S007, G2019S)
Sequence (Q5S007 whole entry G2019S): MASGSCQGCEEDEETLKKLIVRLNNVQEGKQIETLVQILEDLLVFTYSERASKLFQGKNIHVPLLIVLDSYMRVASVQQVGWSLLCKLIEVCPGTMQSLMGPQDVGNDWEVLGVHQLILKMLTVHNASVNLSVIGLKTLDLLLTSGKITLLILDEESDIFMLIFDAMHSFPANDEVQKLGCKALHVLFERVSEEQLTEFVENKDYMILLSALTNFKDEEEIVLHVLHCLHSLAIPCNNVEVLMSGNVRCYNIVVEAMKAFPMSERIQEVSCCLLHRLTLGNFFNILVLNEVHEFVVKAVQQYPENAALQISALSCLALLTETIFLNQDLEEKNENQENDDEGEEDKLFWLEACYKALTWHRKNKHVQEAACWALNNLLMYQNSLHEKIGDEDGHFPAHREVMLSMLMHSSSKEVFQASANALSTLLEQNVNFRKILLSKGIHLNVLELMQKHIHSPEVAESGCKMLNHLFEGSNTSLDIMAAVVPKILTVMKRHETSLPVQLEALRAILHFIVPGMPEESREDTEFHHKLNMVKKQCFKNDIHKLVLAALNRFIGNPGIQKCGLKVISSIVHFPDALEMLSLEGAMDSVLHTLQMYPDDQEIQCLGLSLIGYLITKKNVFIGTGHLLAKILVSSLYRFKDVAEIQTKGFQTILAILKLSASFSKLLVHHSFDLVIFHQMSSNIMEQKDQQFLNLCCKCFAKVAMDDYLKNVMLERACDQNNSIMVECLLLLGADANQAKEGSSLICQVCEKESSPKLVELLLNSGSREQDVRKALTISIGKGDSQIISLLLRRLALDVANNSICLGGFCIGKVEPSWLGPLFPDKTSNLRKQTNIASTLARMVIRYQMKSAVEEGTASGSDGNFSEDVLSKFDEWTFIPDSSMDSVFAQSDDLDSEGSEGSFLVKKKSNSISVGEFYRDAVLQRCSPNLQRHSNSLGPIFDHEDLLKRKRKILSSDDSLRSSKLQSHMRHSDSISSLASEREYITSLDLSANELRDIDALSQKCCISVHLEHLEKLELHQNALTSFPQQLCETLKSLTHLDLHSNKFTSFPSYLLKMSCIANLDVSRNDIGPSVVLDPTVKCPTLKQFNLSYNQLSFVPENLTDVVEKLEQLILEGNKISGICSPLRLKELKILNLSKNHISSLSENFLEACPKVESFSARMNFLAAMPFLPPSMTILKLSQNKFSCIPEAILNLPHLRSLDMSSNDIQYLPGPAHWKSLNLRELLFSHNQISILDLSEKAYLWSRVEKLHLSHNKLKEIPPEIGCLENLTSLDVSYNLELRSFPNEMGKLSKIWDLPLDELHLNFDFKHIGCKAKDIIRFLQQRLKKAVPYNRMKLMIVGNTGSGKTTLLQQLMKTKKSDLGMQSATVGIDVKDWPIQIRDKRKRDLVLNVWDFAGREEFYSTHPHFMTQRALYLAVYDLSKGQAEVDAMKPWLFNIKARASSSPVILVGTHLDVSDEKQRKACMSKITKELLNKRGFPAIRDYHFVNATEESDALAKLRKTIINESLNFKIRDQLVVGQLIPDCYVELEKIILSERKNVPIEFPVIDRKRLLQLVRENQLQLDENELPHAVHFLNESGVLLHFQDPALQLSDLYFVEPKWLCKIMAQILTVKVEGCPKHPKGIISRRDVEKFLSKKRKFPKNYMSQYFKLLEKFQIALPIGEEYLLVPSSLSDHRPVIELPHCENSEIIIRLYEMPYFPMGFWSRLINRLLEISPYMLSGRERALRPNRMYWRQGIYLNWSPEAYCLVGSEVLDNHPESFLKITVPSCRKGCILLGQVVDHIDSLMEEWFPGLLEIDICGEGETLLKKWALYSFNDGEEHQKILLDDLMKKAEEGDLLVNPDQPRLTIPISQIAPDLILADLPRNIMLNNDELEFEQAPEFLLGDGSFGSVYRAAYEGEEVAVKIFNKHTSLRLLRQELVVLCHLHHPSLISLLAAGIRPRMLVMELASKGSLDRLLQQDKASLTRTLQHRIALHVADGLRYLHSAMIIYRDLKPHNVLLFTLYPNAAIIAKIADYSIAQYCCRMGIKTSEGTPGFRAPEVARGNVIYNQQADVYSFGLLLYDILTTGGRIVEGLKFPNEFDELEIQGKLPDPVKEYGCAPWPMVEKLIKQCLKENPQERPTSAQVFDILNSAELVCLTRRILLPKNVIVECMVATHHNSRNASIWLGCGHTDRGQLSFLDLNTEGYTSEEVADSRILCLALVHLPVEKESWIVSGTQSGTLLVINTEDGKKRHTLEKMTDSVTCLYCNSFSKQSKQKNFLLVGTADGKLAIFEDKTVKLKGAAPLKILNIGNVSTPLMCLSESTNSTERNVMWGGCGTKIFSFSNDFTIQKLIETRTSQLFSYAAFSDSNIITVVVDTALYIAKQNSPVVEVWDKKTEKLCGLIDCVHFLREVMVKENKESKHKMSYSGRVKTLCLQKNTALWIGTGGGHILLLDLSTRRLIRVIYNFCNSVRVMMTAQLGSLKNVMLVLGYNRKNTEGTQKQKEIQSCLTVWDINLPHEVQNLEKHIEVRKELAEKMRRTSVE
Test: LRRK2 G2019S Km ATP LanthaScreen assay
Assay type: biochemical
Conditions: read-out: LRRK2 pIC50 (converted)
Description: Unless otherwise noted, all reactions are magnetically stirred. Unless otherwise noted, when diethyl ether is used in the experiments described below, it is Fisher ACS certified material and is stabilized with BHT. Unless otherwise noted, “concentrated” and/or “solvent removed under reduced pressure” means evaporating the solvent from a solution or mixture using a rotary evaporator or vacuum pump. […]
Friendly reminder: IC50 below 800 pM is Criterion met, at or above is Criterion not met.

Q: I wonder whether CC1(N2CCC(c3cc4cc(NC(=O)C5CC5c5ccco5)ncc4cc3Cl)CC2)COCC1O (single isomer, unassigned) [Ex-4.66] has IC50 below 800 pM. Can you tell?
Result: Criterion met
